These measurements were taken from patent US20210388081A1.

- ASSAYED_TARGET: T1, FcRL2, overexpressed on 3T3 cells (UniProt Q96LA5 20-508, limits assumed)
- T1 construct: whole, on cells
- T1 sequence (looked up): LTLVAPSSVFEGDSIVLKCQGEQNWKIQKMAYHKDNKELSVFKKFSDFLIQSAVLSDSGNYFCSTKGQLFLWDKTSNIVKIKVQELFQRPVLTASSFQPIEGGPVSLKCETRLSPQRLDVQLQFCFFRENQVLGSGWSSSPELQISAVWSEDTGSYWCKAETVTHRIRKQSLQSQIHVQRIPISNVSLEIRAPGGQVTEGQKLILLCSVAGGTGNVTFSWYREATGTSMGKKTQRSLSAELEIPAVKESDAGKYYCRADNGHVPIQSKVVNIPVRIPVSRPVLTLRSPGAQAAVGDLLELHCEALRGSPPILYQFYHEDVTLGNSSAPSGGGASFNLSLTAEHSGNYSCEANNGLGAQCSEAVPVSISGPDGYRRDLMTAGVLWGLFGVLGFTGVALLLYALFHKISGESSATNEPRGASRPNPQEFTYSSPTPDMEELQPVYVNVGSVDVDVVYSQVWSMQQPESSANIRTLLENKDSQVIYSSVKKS
- ASSAY_METHOD_TEXT: phage clone on 3T3-FcRL2 cells
MEASURE_NAME: binding result

• ET200-002 (scFv, screened as phage clone; entry is VL-linker-VH-His tag-HA tag) scFv: NFMLTQPHSVSESPGKTVTISCTRSSGSIASNYVQWYQQRPGSAPTTVIYEDNQRPSGVPDRFSGSIDSSSNSASLTISGLKTEDEADYYCQSYDSSNSVVFGGGTKLTVLGSRGGGGSGGGGSGGGGSLEMAQVQLVQSGTEVKKPGASVRVACKASGYPFNKYDINWVRQAPGQGLEWMGGIIPIFRTTNYAQKFQGRVTITADESTSTAYMELSSLRSEDTAVYYCAREWFYWDIWGQGTLVTVSSTSGQAGQHHHHHHGAYPYDVPDYAS = no binding
• ET200-097 (scFv, screened as phage clone; entry is VL-linker-VH-His tag-HA tag) scFv: LPVLTQPPSVSVSPGQTAIITCSGDKLGEKYVSWYQQKPGQSPVLVIDQDTRRPSGIPERFSGSNSGTTATLTISGTQAMDEADYYCQAWDRGVVFGGGTKLTVLGSRGGGGSGGGGSGGGGSLEMAEVQLVESGGDLVQPGRSLRLSCAASGFTFNDYAMHWVRQAPGKGLEWVSGISWSGNNIGYADSVKGRFTISRDNAKNSLYLQMNSLRAEDTALYYCAKDSIRYGITWGGFDYWGQGTLVTVSSTSGQAGQHHHHHHGAYPYDVPDYAS = no binding
